Ref: ChEMBL document CHEMBL4038299

# test_name: Half life in plasma (unknown origin)
# Assay type: ADME, cell-free
value_type: half-life

# get_value(readout='half-life', item= CCS(=O)(=O)CCn1c([N+](=O)[O-])cnc1C [TINIDAZOLE] )
12 to 14 h

---

# System: Leishmania donovani
# test_name: Antileishmanial activity against Leishmania donovani LV9 amastigotes infected in mouse peritoneal macrophages after 72 hrs
# Type: functional
# condition_details: LV9, 72 h
value_type: EC50 (µM)
Form entry: value (µM) — number only.

smiles_data	unit_abbreviation	EC50
C[C@]1(COc2ccc(N3CCC(Oc4ccc(OC(F)(F)F)cc4)CC3)cc2)Cn2cc([N+](=O)[O-])nc2O1	µM	0.087

Missing value: EC50, Leishmania donovani, entry `CCCCCCCCCCCCCCCCOP(=O)([O-])OCC[N+](C)(C)C` . Fill in?
3.3

Missing value: EC50, Leishmania donovani, entry `Cn1c([N+](=O)[O-])cnc1COc1ccc(S(C)(=O)=O)cc1` . Fill in?
5.3
